Provide the reported CC50 at 3 days of each item.
assayOverview: Compound induced cellular toxicity in HepG2 cells (ATPlite)
Type: cell-based
cond: human, three days, ATPlite 1 Step, concentration reducing total ATP levels by 50% relative to no drug controls

Looking for the measured CC50 at 3 days of CC(C)(C)[C@@H]1Cc2c(oc3c(-c4cccs4)cccc23)-c2c(F)c(=O)c(C(=O)O)cn21 , can you help?
> 25 µM

Also, CC(C)(C)[C@@H]1Cc2c(oc3c(-c4ccco4)cccc23)-c2cc(=O)c(C(=O)O)cn21 please.
10 to 25 µM

Also, Cn1ccc(-c2cccc3c4c(oc23)-c2cc(=O)c(C(=O)O)cn2[C@H](C(C)(C)C)C4)n1 please.
10 to 25 µM

Also, Cn1cc(-c2cccc3c4c(oc23)-c2c(F)c(=O)c(C(=O)O)cn2[C@H](C(C)(C)C)C4)cn1 please.
> 25 µM

Also, CC(C)[C@@H]1Cc2c(oc3c(OC(F)F)cccc23)-c2cc(=O)c(C(=O)O)cn21 please.
> 25 µM

Also, CC(C)(C)[C@@H]1Cc2c(oc3c(-c4ccoc4)cccc23)-c2cc(=O)c(C(=O)O)cn21 please.
10 to 25 µM

Also, CC(C)(C)[C@@H]1Cc2c(oc3c(-c4ccsc4)cccc23)-c2cc(=O)c(C(=O)O)cn21 please.
> 25 µM

Also, CC(C)(C)[C@@H]1Cc2c(oc3c(-n4cccn4)cccc23)-c2c(F)c(=O)c(C(=O)O)cn21 please.
> 25 µM

Also, CC(C)[C@@H]1Cc2c(oc3cc(OC(F)F)ccc23)-c2cc(=O)c(C(=O)O)cn21 please.
< 10 µM

Also, CC(C)(C)[C@@H]1Cc2c(oc3c(OC4CC4)cccc23)-c2cc(=O)c(C(=O)O)cn21 please.
10 to 25 µM
